Each item that follows carries a reported viability.
Test: reversal of MRP1-mediated doxorubicin resistance, pilot screen, H69AR cells, doxorubicin co-treatment (AID 601)
Settings: H69AR cells + 2 uM doxorubicin, CellTiter-Glo, 72 h; measured here: viability with 2 uM doxorubicin; at 10 µM; stronger effect = lower value

compound: CC(=O)Oc1ccc(CCC(C)OC(C)=O)cc1 (stereo unspecified)
viability [%]: 96.9
//
compound: CC(=O)Nc1ccc(S(=O)(=O)n2nc(C)cc2C)cc1
viability [%]: 98.9
//
compound: Cc1cccc(CCNC(=O)CCc2nc(-c3ccccc3F)no2)c1
viability [%]: 83.7
//
compound: CC1CCc2cc(F)cc3c(=O)c(C(=O)O)cn1c23 (stereo unspecified)
viability [%]: 99.2
//
compound: O=C(N1CCOCC1)N1CCC(NC(=O)C23CC4CC(CC(C4)C2)C3)CC1
viability [%]: 90.4
//
compound: Cc1cc(C)n(C(=O)CNC(=O)C2COc3ccccc3O2)n1 (stereo unspecified)
viability [%]: 93.5

Attribution: PubChem BioAssay
